test system: BT-549 breast; assay: NCI-60 one-dose screen, 48 h (100 = growth as untreated, 0 = no growth, -100 = all killed); settings: 10 µM unless noted
This is part of a sample that, as a whole, favours compounds with a hit. Of some 83,000 tested, about 20% had one in any assay. Calls of active or inactive are those of the source. The calls were made as follows: active = growth percent below 10; inactive = the rest.
growth: recorded values

compound	testedOn	dataValue
CCN(CC)c1cc(/C=C/c2ccc(OC)c(OC)c2)nc2cc(F)c(F)cc12	BT-549 breast	24.5% (inactive)
Nc1nc(Cl)c2c(ncn2Cc2ccc(CCl)cc2)n1	BT-549 breast	6.29% (active)
COc1ccc(/C=N/NC(=O)Cn2c(Cc3cccc4ccccc34)nc3ccccc32)cc1	BT-549 breast	107% (inactive)
c1ccc2nc(-c3ccc4ccccc4n3)ccc2c1	BT-549 breast	93.7% (inactive)
O=C1CCCCN1CCCCC#Cc1ccccc1C#Cc1ccccn1	BT-549 breast	117% (inactive)
CCc1c(C(=O)Nc2ccc3ccccc3c2)[nH]c(C)c1C(C)=O	BT-549 breast	112% (inactive)

Record COc1ncc(-c2ccc3ncnc(Nc4cccc(Cl)c4)c3c2)cc1NS(=O)(=O)C1CC1 , field growth: 2.9% (active)

Record COc1cc(-c2cc(/C=C3\CCCCC3=O)[nH]n2)cc(OC)c1OC , field growth: 99.7% (inactive)

Record CNC(=O)Cc1nc(-c2cccc(NS(=O)(=O)c3c(F)cccc3F)c2F)c(-c2ccnc(Nc3ccccc3)n2)s1 , field growth: 103% (inactive)

Record C#CCN1C(=O)/C(=c2\sc3n(c2=O)C2C(NN=3)N(CC)C(=O)N2CC)c2ccccc21 (stereo not given) , field growth: 39.7% (inactive)

###

test system: OVCAR-8 ovarian; experiment: NCI-60 one-dose screen, 48 h (100 = growth as untreated, 0 = no growth, -100 = all killed); conditions: 10 µM unless noted
This is part of a sample that, as a whole, favours compounds with a hit. Of some 83,000 tested, about 20% had one in any assay.
readoutName: growth (%)
// return numeric value only (unit: %, not printed)

compoundStructure	growth (%)
Cc1oc2nc[nH]c(=O)c2c1C(=O)/C=C/c1ccc(Cl)cc1Cl	45.4
CC[C@H](C)[C@H]1NC(=O)[C@@H](N[C@](C)(O)[C@@H](N)CC(C)C)[C@@H](C)OC(=O)[C@H](Cc2ccc(OC)cc2)N(C)C(=O)[C@@H]2CCCN2C(=O)[C@H](CC(C)C)NC(=O)[C@@H](C)C(=O)[C@H](C(C)C)OC(=O)C[C@@H]1O	-13.6

Here's the next entry for you.
Record COc1cc(CNC(=O)CCSc2nc3ccccc3c(=O)n2Cc2cc(OC)c(OC)c(OC)c2)cc(OC)c1OC , field growth: 48.2

###

test system: HCT-116 colon; assay: NCI-60 one-dose screen, 48 h; conditions: 10 µM unless noted
This is part of a sample that, as a whole, favours compounds with a hit. Of some 83,000 tested, about 20% had one in any assay. The source made the active and inactive calls. Rule for the calls: active = growth percent below 10; inactive = the rest.
Allowed answers: YES (active), NO (inactive)

Q: Please let me know the test result on file for c1cc(-c2ccc3c(c2)OCO3)n2nccc2n1 .
A: NO

Q: Please let me know the test result on file for COc1cc2oc(-c3cccc(NC(=O)Nc4ccc5c(c4)OCO5)c3)cc(=O)c2c(OC)c1OC .
A: NO

Q: Please let me know the test result on file for COc1ccc(S(=O)(=O)N2CCN(c3cc4c(cc3F)c(=O)c(C(=O)O)cn4C3CC3)CC2)c(OC)c1 .
A: NO

Q: Please let me know the test result on file for CC(C)C(C(=O)CCN(C)C)c1ccc(Cl)cc1 (stereo unspecified) .
A: NO

Q: Please let me know the test result on file for O=[N+]([O-])c1c(S(=O)(=O)O)cc2cc(S(=O)(=O)O)ccc2c1[N+](=O)[O-] .
A: NO

###

System: T-47D breast
Test: NCI-60 one-dose screen, 48 h (100 = growth as untreated, 0 = no growth, -100 = all killed)
Conditions: 10 µM unless noted
Protocol: Growth inhibition of the T-47D human tumor cell line is measured as a screen for anti-cancer activity. Cells are grown in 96 well plates and exposed to the test compound for 48 hours. Compounds are tested at a single concentration, which is 10^-5 M for most compounds. The reported endpoint is percent growth (GI% or GIPRCNT), where numbers from 0 - 100% represent growth inhibition, and numbers from -100% - 0 represent cell death. For example, a value of 40 represents 60% growth inhibition. […]
The panel holds about 83,000 compounds, 20% with a hit somewhere; the sample as a whole holds those more often.
readoutName: growth (%)
// return numeric value only (unit: %, not printed)

Record O=C(NCCc1c[nH]c2ccccc12)C1Cc2ccccc2CN1C(=O)c1ccco1 (stereo unspecified) , field growth: 105

Record Nc1c(C(=O)Nc2c(Cl)cccc2Cl)sc2nc3c(cc12)CCCCC3 , field growth: 57.7

Record CN(C)c1ncc(-c2ccc(C(F)(F)F)cc2)c(NC2CCCCCC2)n1 , field growth: 35.1

Record Nc1nc(-c2ccccc2)cs1 , field growth: 96.7

Record CC(Br)C(O)c1cc2c(cc1Br)OCO2 (stereo unspecified) , field growth: 100

###

growth: recorded values
tested on: NCI/ADR-RES ovarian; test: NCI-60 one-dose screen, 48 h (100 = growth as untreated, 0 = no growth, -100 = all killed); settings: 10 µM unless noted
Compounds without any hit were thinned out: in the full panel of roughly 83,000, 20% have a hit.
// return numeric value only (unit: %, not printed)

Record NC(=O)NC(=O)/C=C/C(=O)OCCCl , field growth: 109

###

test system: T-47D breast; assay: NCI-60 one-dose screen, 48 h (100 = growth as untreated, 0 = no growth, -100 = all killed); details: 10 µM unless noted
Compounds without any hit were thinned out: in the full panel of roughly 83,000, 20% have a hit.
Mark T for growth under 50%, F if at or over.

compound	className
CCOC(=O)c1cc(/C(=N\O)c2cc(OC)c(OC)c(OC)c2)n2c(C)cccc12	T

Q: Consider COc1cc(OC)c(C(=O)/C=C/c2cccc(C#N)c2)c(OC)c1 . Does its growth lie strictly below 50%?
A: T

Q: Consider Cc1cc(Nc2nc(C(=O)Nc3ccccc3)nc3ccccc23)n[nH]1 . Does its growth lie strictly below 50%?
A: T

###

growth: recorded values
test system: RPMI-8226 leukemia; assay: NCI-60 one-dose screen, 48 h (100 = growth as untreated, 0 = no growth, -100 = all killed); conditions: 10 µM unless noted
About 83,000 compounds went through this panel and 20% of them were active in at least one assay; those are over-represented in the sample as a whole.
// return numeric value only (unit: %, not printed)

Solved cases below.
compound	resultUnits	dataValue
Cc1cc(Cl)ccc1OC(C)C(=O)Nc1nnc(C2CC2)s1 (stereo unspecified)	%	89.6
CC1CCc2c(sc(NC(=O)CSc3nnc4ccccn34)c2C(N)=O)C1 (stereo unspecified)	%	119
Nc1c(C(=O)Nc2cccc(Cl)c2Cl)sc2nc3c(cc12)C(=O)CCC3	%	102
COc1cc2c(cc1OC)C1(C)N(CC2)C(=O)OC1(C)C (stereo unspecified)	%	105
CCSc1nnc(NC(=O)COc2ccc(Cl)cc2C)s1	%	94.6
COc1ccc(/C=C/C(=O)/C=C/c2cc3ccc(Cl)cc3[nH]c2=O)cc1	%	19.9

Here's the next entry for you.
Record N#CC1=C(N)n2nc(-c3ccncc3)nc2NC1c1cccc2ccccc12 (stereo unspecified) , field growth: 74.9

###

test system: NCI-H322M lung; test: NCI-60 one-dose screen, 48 h (100 = growth as untreated, 0 = no growth, -100 = all killed); details: 10 µM unless noted
The panel holds about 83,000 compounds, 20% with a hit somewhere; the sample as a whole holds those more often.
# binarize growth: threshold 80% inclusive, high side true, low side false

Check out these entries, answers already filled in.
compound	testedOn	className
Cc1nc(Nc2cccnc2)sc1C(=O)/C=C/c1ccc(Cl)cc1	NCI-H322M lung	false
Cc1cc(C)c(S(=O)(=O)N2CCN(c3cc4c(cc3F)c(=O)c(C(=O)O)cn4C3CC3)CC2)c(C)c1	NCI-H322M lung	false
COC(=O)C(CC(=O)c1ccc(-c2ccccc2)cc1)c1ccccc1 (centres undefined)	NCI-H322M lung	true
CCC(=O)Oc1ccc2c(c1)CC[C@@H]1[C@@H]2CC[C@]2(C)C[C@H](OC(=O)CC)C[C@@H]12	NCI-H322M lung	true
Cc1cccc2cc(/C=C/C(=O)/C=C/c3ccc(Cl)cc3)c(=O)[nH]c12	NCI-H322M lung	true
O=C(Nc1cc(C(F)(F)F)cc(C(F)(F)F)c1)Nc1ccc(OCc2nnc(-c3ccc(Cl)cc3)o2)c(F)c1	NCI-H322M lung	false
O=C(Nc1cccc(C(F)(F)F)c1)Nc1ccc(OCc2nnc(-c3ccccc3)o2)c(F)c1	NCI-H322M lung	false

Attention now shifts to the item below.
Q: Determine whether this compound has growth no lower than 80%: CC(=O)OC[Si](C)(C)c1ccccc1
A: true
